molecular target: Death-associated protein kinase 2 (Homo sapiens, UniProt Q9UIK4); assay: Binding affinity to human DAPK2 expressed in Escherichia coli BL21 cells incubated for 1 hr by active site directed binding competition assay
Sequence (Q9UIK4 whole entry): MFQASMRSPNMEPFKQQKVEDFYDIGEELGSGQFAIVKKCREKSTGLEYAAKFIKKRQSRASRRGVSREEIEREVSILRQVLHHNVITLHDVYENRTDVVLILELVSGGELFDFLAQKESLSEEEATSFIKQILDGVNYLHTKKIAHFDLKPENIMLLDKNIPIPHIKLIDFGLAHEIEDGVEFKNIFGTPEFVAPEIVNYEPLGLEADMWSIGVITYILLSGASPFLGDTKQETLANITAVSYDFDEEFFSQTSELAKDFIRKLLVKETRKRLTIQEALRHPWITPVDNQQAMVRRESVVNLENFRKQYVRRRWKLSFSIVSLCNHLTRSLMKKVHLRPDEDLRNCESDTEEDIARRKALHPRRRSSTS
pKd: −log10 of the molar value.

{"columns": ["STRUCTURE SMILES", "TARGET", "pKd"],
 "data": [
  ["CCc1ccc(/N=C2\\S/C(=C\\c3ccnc(Nc4ccc(C(=O)O)cn4)c3)C(=O)N2C)cc1", "Death-associated protein kinase 2 (Homo sapiens, UniProt Q9UIK4)", 6.35]
]}

###

target: Aurora kinase A (Homo sapiens, UniProt O14965); assay: Inhibition of His-tagged human Aurora A kinase ([…] residues) expressed in Escherichia coli BL21 (DE3) Rosetta cells using biotinylated STK2 substrate incubated for 30 mins in presence of 0.002 uM TPX2 by HTRF assay
Sequence (O14965 whole entry): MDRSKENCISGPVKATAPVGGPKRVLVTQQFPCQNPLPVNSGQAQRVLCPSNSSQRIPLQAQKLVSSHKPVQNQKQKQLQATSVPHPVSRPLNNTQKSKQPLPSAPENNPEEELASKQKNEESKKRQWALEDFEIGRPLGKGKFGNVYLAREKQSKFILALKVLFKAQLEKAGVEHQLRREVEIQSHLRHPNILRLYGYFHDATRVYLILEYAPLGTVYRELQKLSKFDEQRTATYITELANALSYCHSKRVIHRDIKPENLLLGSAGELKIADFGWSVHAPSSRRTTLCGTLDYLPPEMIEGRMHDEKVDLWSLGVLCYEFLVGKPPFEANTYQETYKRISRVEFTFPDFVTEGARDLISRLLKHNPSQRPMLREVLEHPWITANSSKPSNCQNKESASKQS
MEASURED PROPERTY: IC50 (nM)

{"columns": ["STRUCTURE SMILES", "MEASURED PROPERTY", "MEASURED RESULT"],
 "data": [
  ["CCc1ccc(/N=C2\\S/C(=C\\c3ccnc(Nc4ccc(C(=O)O)cn4)c3)C(=O)N2C)cc1", "IC50", 1.7]
]}

###

target: Aurora kinase B/Inner centromere protein (Homo sapiens, UniProt Q96GD4); assay: Inhibition of Aurora-B/INCENP (unknown origin) using biotinylated STK2 substrate incubated for 30 mins by HTRF assay
Sequence (Q96GD4 whole entry): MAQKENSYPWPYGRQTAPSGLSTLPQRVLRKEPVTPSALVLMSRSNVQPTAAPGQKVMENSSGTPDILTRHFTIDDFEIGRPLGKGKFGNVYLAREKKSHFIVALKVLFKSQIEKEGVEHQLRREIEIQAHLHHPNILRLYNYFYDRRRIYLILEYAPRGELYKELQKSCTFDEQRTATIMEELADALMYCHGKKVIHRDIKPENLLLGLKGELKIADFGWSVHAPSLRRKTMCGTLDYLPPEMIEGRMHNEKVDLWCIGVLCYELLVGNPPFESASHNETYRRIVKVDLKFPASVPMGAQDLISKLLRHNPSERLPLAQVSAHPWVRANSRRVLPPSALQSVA
Sequence (Q9NQS7 whole entry, further chain): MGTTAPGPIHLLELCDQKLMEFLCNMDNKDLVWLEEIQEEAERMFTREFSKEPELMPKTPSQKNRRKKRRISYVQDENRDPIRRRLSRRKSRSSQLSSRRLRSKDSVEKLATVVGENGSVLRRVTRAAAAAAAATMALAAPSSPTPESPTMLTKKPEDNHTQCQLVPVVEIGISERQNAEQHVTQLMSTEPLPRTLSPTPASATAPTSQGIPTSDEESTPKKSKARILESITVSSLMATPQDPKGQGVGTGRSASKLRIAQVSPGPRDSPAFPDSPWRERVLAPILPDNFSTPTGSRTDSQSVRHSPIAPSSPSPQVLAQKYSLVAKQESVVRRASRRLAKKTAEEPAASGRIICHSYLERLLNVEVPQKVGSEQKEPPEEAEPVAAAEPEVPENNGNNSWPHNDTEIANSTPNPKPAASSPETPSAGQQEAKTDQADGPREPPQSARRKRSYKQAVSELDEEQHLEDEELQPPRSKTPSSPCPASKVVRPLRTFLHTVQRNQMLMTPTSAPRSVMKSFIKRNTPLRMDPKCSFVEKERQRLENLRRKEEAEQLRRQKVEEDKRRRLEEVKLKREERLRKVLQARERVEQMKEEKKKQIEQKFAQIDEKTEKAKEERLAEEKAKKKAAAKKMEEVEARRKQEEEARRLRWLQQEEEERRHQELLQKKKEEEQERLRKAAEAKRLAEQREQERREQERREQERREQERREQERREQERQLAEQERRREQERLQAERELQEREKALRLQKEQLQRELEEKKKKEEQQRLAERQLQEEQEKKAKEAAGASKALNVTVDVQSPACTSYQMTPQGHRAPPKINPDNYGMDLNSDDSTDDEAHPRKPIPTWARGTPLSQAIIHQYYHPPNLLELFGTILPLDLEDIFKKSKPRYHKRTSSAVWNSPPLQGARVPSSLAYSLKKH
MEASURED PROPERTY: IC50 (nM)

{"columns": ["STRUCTURE SMILES", "MEASURED PROPERTY", "UNIT TEXT", "MEASURED RESULT"],
 "data": [
  ["CCc1ccc(/N=C2\\S/C(=C\\c3ccnc(Nc4ccc(C(=O)O)cn4)c3)C(=O)N2C)cc1", "IC50", "nM", 150],
  ["CCc1ccc(/N=C2\\S/C(=C\\c3ccnc(Nc4ccc(C(=O)O)cc4)c3)C(=O)N2C)cc1", "IC50", "nM", 1540],
  ["CCc1ccc(/N=C2\\S/C(=C\\c3ccnc(NC(=O)CCC(=O)O)c3)C(=O)N2C)cc1", "IC50", "nM", 1700],
  ["CCc1ccc(/N=C2\\S/C(=C\\c3ccnc(NC(=O)CCCC(=O)O)c3)C(=O)N2C)cc1", "IC50", "nM", 1400],
  ["CCc1ccc(/N=C2\\S/C(=C\\c3ccnc(Nc4ccc(CO)cc4)c3)C(=O)N2C)cc1", "IC50", "nM", 2600],
  ["CCc1ccc(/N=C2\\S/C(=C\\c3ccnc(NC(=O)CCN)c3)C(=O)N2C)cc1", "IC50", "nM", 10000],
  ["CCc1ccc(/N=C2\\S/C(=C\\c3ccnc(Nc4ccc(-c5nnn[nH]5)cc4)c3)C(=O)N2C)cc1", "IC50", "nM", 830],
  ["CCc1ccc(/N=C2\\S/C(=C\\c3ccnc(N)c3)C(=O)N2C)cc1", "IC50", "nM", 23000],
  ["CCc1ccc(/N=C2\\S/C(=C\\c3ccnc(NC(=O)CC(=O)O)c3)C(=O)N2C)cc1", "IC50", "nM", 2700]
]}

###

organism: Homo sapiens; experiment: Selectivity index, ratio of IC50 for Aurora-B/INCENP (unknown origin) to IC50 for His-tagged human Aurora A kinase ([…] residues) expressed in Escherichia coli BL21 (DE3) Rosetta cells

{"columns": ["STRUCTURE SMILES", "Ratio IC50"],
 "data": [
  ["CCc1ccc(/N=C2\\S/C(=C\\c3ccnc(Nc4ccc(C(=O)O)cn4)c3)C(=O)N2C)cc1", 75],
  ["CCc1ccc(/N=C2\\S/C(=C\\c3ccnc(Nc4ccc(CO)cc4)c3)C(=O)N2C)cc1", 20],
  ["CCc1ccc(/N=C2\\S/C(=C\\c3ccnc(NC(=O)CCC(=O)O)c3)C(=O)N2C)cc1", 415],
  ["CCc1ccc(/N=C2\\S/C(=C\\c3ccnc(NC(=O)CCCC(=O)O)c3)C(=O)N2C)cc1", 230],
  ["CCc1ccc(/N=C2\\S/C(=C\\c3ccnc(Nc4ccc(-c5nnn[nH]5)cc4)c3)C(=O)N2C)cc1", 33],
  ["CCc1ccc(/N=C2\\S/C(=C\\c3ccnc(N)c3)C(=O)N2C)cc1", 121],
  ["CCc1ccc(/N=C2\\S/C(=C\\c3ccnc(Nc4ccc(C(=O)O)cc4)c3)C(=O)N2C)cc1", 250],
  ["CCc1ccc(/N=C2\\S/C(=C\\c3ccnc(NC(=O)CC(=O)O)c3)C(=O)N2C)cc1", 450],
  ["CCc1ccc(/N=C2\\S/C(=C\\c3ccnc(NC(=O)CCN)c3)C(=O)N2C)cc1", 53]
]}
